Cited source for all entries: the supplement of paper PMC8728848

target: Fuc(a1-3)[Gal(b1-4)]GlcNAc(b1-2)Man(a1-3)[Fuc(a1-3)[Gal(b1-4)]GlcNAc(b1-2)Man(a1-6)]Man(b1-4)GlcNAc(b1-4)GlcNAc; experiment: glycan array binding signal (z-score within array); higher = stronger binding; conditions: glycan notation: IUPAC condensed, linker removed
This excerpt belongs to a sample that is enriched for the strongest signals.
For each record, write down the corresponding glycan array binding signal (z-score).
Reply briefly: the number, and no unit.

Report glycan array binding signal (z-score) for CCL1 (Coprinopsis cinerea) (protein) MDTQAKPPAGRYVIYNRVLSPNGEKLALTYPGYQREALTLTPLHHSANQIWILNNWDATTSSLTPETARNTQVGWGSGNVPIVLPPGNYVWTLASSAGGYIIQDGGKTVYWNAGEAVANTKVSIGGDNGLQARWIFERV please.
0.237

One more binder: CCL2 (Coprinopsis cinerea), B3GA02 (protein) MDSPAVTLSAGNYIIYNRVLSPRGEKLALTYPGRQRTPVTVSPLDGSSEQAWILRSYDSNSNTWTISPVGSPNSQIGWGAGNVPVVLPPNNYVWTLTLTSGGYNIQDGKRTVSWSLNNATAGEEVSIGADATFSGRWVIEKV
3.53

One more binder: Calsepa (Calystegia sepium), P93114 (protein) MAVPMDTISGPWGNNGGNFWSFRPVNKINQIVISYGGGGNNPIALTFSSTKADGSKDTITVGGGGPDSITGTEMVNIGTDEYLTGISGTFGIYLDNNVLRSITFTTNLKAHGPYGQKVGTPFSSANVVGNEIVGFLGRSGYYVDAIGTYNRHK
-0.082

One more binder: Ovorubin (Pomacea canaliculata), J7I2T6 (protein) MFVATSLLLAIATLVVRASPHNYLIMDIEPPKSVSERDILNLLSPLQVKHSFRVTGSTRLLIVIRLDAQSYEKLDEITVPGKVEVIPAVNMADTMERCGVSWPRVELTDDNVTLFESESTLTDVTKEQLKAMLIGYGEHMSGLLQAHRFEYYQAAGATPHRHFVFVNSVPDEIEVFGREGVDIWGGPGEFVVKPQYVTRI
0.055
